# System: Digitaria ciliaris
# assay method text: Test Example 4: herbicidal effect test by stem and leaf treatment in upland field
# Type: in vivo
# details: Digitaria ciliaris; 120 g per 10 ares; sprayed seven days after sowing, upland soil; 14 days after application; read-out: weed inhibition rate
Assign inhibition at 1200 g/ha to each entry below.

Result for Cc1cccc(C)c1CO[C@H]1C[C@@]2(C(C)C)O[C@]1(C)C[C@H]2I , tested on Digitaria ciliaris, inhibition at 1200 g/ha: ≥ 80%

Readout inhibition at 1200 g/ha for COC1(OC)C[C@]2(C)O[C@@]1(C(C)C)C[C@H]2OCc1ccccc1F , test system Digitaria ciliaris, was ≥ 80%

Measured inhibition at 1200 g/ha for this entry CC(C)C12CC(OCc3c(Cl)cccc3Cl)C(C)(CC1I)O2 (centres unmarked) on Digitaria ciliaris: ≥ 80%

The measured inhibition at 1200 g/ha that CC(C)C12CC(OCc3cccc(I)c3)C(C)(CC1Br)O2 (centres unmarked) showed for Digitaria ciliaris is ≥ 80%

Digitaria ciliaris inhibition at 1200 g/ha of COC(=O)c1ccccc1CO[C@@H]1C[C@]2(C(C)C)O[C@@]1(C)C[C@@H]2Br is ≥ 80%
